- Test system: Aspergillus niger
- protocol.notes: Antifungal activity against Aspergillus niger at 2% by disc diffusion assay
Exercise: state measured diameter of the inhibition zone (DIZ) for each of the compounds provided.
Give bare numbers, in mm.

Look over these answered cases.
N#Cc1c2c(c3nncn3c1SCC(N)=O)CCCC2    0
N#Cc1c2c(c(N3N=C(c4ccccc4)CC3=O)[nH]c1=S)CCCC2    0
N#CCSc1c(C#N)c2c(c3nncn13)CCCC2    0

Give one value of diameter of the inhibition zone (DIZ) per listed compound.
1. Cc1cc(C)n(-c2nc(SCC(=O)c3ccccc3)c(C#N)c3c2CCCC3)n1
2. Cc1cc(C)n(-c2[nH]c(=S)c(C#N)c3c2CCCC3)n1
3. Cc1cc(C)n(-c2nc(SCC#N)c(C#N)c3c2CCCC3)n1
4. N#Cc1c2c(c(NN)[nH]c1=S)CCCC2
5. CC(=O)CSc1nc(-n2nc(C)cc2C)c2c(c1C#N)CCCC2

[0, 0, 8, 12, 0]

Give diameter of the inhibition zone (DIZ) for all compounds that follow.
1. N#CCSc1nc(NN)c2c(c1C#N)CCCC2
2. Clc1ccccc1C(c1ccccc1)(c1ccccc1)n1ccnc1

0
25

I would be grateful if you could provide diameter of the inhibition zone (DIZ) for each of the following entries.
1. N#Cc1c2c(c(-n3[nH]c(=O)cc3N)[nH]c1=S)CCCC2
2. N#Cc1c2c(c3nncn3c1SCC(=O)c1ccccc1)CCCC2
3. Cc1cc(C)n(-c2nc(SCC(N)=O)c(C#N)c3c2CCCC3)n1
4. NC(=O)c1sc2c(c1N)c1c(c3nncn32)CCCC1

1: 0; 2: 16; 3: 8; 4: 0
